// data source = patent US12012467B2

# Tested System: DCN1 (Homo sapiens (Human), UniProt Q96GG9)
# Sequence (Q96GG9 58-259): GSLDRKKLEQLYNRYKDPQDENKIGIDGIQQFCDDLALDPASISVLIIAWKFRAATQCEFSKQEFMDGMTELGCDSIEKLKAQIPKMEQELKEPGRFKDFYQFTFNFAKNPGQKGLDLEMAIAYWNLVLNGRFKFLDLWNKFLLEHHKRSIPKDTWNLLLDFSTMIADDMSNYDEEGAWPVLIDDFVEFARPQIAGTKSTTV
# Assay Notes: Competitive FP binding assay
# Condition Info: bounds given in μM; read-out: Binding affinity to DCN1 (IC50)
Square brackets hold non-standard residues; d marks the D form. Peptide text beside a SMILES is read from it. * marks the point of attachment. 2Nal = N[C@@H](Cc1ccc2ccccc2c1)C(=O)O; Moc = COC(=O)*
Assay Metric: IC50

**Q:** Which IC50 value is on record for `CN(C)CCCC[C@H](NC(=O)[C@@H](NC(=O)[C@@H](N)Cc1nc2ccc(Cl)cc2s1)C1CCCC1)C(=O)N[C@@H]1CCOc2ccccc21` ?
**A:** > 10 µM

**Q:** Given `CCC(=O)N[C@@H](Cc1nc(C)c(-c2cccc(C(F)(F)F)c2)s1)C(=O)N[C@H](CN)Cc1ccccc1` , state its recorded IC50.
**A:** > 10 µM

**Q:** Please give the measured IC50 for this compound: `CCC(=O)N[C@H](CNC(=O)[C@H](N)C1CCCC1)Cc1nc2ccc(Cl)cc2s1`
**A:** > 5 µM

**Q:** Item under review: `CCC(=O)N[C@@H](Cc1ccc(C)cn1)C(=O)N[C@H](C(=O)N[C@@H](CCCCN)C(=O)NC(c1ccccc1)c1ccccc1)[C@@H](C)CC` . Reported IC50?
**A:** > 10 µM

**Q:** Returns the measured IC50 for the input compound. Input: CC[C@H](C)[C@H](NC(=O)[C@H](Cc1ccc2ccccc2c1)NC(=O)OC)C(=O)N[C@@H](CCCCN)C(=O)N[C@@H](CC(C)C)C(N)=O [Example 170] (Moc-[2Nal]IKL-NH2)
**A:** > 10 µM

**Q:** GET /values?readout=IC50&item= `CCC(=O)N[C@@H](Cc1nc2ccc(Cl)cc2s1)C(=O)NCCN`
**A:** > 10 µM
